- target-or-test-system: T1, human TfR extracellular domain with N-terminal His tag (human, UniProt P02786 89-760)
- T1 construct: Biotinylated in some assays; also called huTfR; HuTfR
- T1 sequence (P02786 89-760 G142S): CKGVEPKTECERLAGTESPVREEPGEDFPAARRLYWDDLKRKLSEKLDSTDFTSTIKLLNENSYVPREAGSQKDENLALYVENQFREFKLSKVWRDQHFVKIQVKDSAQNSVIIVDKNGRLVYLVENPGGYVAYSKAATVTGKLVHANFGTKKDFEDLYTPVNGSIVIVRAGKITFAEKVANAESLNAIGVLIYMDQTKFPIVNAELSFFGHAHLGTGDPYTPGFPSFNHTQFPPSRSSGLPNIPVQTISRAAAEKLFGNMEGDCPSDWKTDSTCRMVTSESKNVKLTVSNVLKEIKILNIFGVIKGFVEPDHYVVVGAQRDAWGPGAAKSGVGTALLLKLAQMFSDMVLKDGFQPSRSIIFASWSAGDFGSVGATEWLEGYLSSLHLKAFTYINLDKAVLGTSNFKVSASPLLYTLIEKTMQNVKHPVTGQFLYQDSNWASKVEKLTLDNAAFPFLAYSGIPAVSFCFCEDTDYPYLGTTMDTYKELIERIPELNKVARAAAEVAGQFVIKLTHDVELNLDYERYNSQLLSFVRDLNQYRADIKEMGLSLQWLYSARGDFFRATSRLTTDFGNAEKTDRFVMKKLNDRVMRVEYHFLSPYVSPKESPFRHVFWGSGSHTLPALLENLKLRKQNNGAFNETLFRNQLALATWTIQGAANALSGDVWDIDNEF
- method-description: SPR SCK 1:1 fit, IgG
result-type: Kd

binder	result-type	recorded-result
hu15G11.v5 IgG (antibody, V domains shown, Human IgG (detected with anti-human Fc gamma); also called humanized 15G11.v5) VH: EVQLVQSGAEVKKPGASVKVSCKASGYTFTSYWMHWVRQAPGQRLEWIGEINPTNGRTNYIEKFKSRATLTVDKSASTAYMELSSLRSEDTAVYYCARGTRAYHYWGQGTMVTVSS VL: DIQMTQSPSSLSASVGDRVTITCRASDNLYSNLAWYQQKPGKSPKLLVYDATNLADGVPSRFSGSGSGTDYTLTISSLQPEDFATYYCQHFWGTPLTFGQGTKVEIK	Kd	3.3 nM
Q89A (antibody, V domains shown, also called 15G11.v5 Q89A (CDR-L3) IgG) VH: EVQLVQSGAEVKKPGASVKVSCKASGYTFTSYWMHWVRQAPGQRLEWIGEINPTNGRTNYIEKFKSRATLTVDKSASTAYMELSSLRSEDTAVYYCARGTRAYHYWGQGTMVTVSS VL: DIQMTQSPSSLSASVGDRVTITCRASDNLYSNLAWYQQKPGKSPKLLVYDATNLADGVPSRFSGSGSGTDYTLTISSLQPEDFATYYCAHFWGTPLTFGQGTKVEIK	Kd	125 nM
T96A (antibody, V domains shown, also called 15G11.v5 T96A (CDR-H3) IgG; copies: 2 + 2) VH: EVQLVQSGAEVKKPGASVKVSCKASGYTFTSYWMHWVRQAPGQRLEWIGEINPTNGRTNYIEKFKSRATLTVDKSASTAYMELSSLRSEDTAVYYCARGARAYHYWGQGTMVTVSS VL: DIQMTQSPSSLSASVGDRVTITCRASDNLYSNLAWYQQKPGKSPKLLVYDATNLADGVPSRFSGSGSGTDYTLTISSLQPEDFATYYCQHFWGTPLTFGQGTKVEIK	Kd	173 nM
G93A (antibody, V domains shown, also called 15G11.v5 G93A (CDR-L3) IgG) VH: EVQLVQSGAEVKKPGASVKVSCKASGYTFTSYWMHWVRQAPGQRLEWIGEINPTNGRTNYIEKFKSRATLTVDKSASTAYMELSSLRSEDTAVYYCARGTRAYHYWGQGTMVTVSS VL: DIQMTQSPSSLSASVGDRVTITCRASDNLYSNLAWYQQKPGKSPKLLVYDATNLADGVPSRFSGSGSGTDYTLTISSLQPEDFATYYCQHFWATPLTFGQGTKVEIK	Kd	40 nM
F91A (antibody, V domains shown, also called 15G11.v5 F91A (CDR-L3) IgG) VH: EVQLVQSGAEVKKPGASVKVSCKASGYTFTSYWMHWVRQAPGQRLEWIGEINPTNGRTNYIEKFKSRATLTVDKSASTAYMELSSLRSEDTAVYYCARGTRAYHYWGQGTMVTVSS VL: DIQMTQSPSSLSASVGDRVTITCRASDNLYSNLAWYQQKPGKSPKLLVYDATNLADGVPSRFSGSGSGTDYTLTISSLQPEDFATYYCQHAWGTPLTFGQGTKVEIK	Kd	167 nM
W92A (antibody, V domains shown, also called 15G11.v5 W92A (CDR-L3) IgG; 15G11.W92A) VH: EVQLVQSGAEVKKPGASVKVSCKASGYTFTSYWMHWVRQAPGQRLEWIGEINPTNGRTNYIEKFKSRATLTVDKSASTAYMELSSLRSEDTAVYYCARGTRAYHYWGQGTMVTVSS VL: DIQMTQSPSSLSASVGDRVTITCRASDNLYSNLAWYQQKPGKSPKLLVYDATNLADGVPSRFSGSGSGTDYTLTISSLQPEDFATYYCQHFAGTPLTFGQGTKVEIK	Kd	31 nM
P95A (antibody, V domains shown, also called 15G11.v5 P95A (CDR-L3) IgG) VH: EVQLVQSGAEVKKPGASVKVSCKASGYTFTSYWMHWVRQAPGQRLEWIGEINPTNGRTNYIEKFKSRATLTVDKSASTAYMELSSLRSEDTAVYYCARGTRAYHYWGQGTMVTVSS VL: DIQMTQSPSSLSASVGDRVTITCRASDNLYSNLAWYQQKPGKSPKLLVYDATNLADGVPSRFSGSGSGTDYTLTISSLQPEDFATYYCQHFWGTALTFGQGTKVEIK	Kd	29 nM
